Tested on: Klebsiella pneumoniae ATCC BAA-1705
Assay: Inhibition of beta lactamase KPC in Klebsiella pneumoniae ATCC BAA 1705 assessed as potentiation of meropenem-induced antibacterial activity by measuring diameter of zone inhibition at 0.3 mg incubated for 18 hrs in presence of 10 ug meropenem by CLSI disc diffusion method (Rvb=[…] mm)
Property measured: inhibition zone (IZ) (mm)
Give the number; mm is assumed, so skip it.

{"Smiles text": "C[Si]1(C)OB(O)c2ccc(F)c(F)c21", "Result": 14}
{"Smiles text": "C[Si]1(C)OB(O)c2c(F)c3c(c(F)c21)B(O)OC3", "Result": 12}
{"Smiles text": "OB(O)c1ccccc1", "Result": 22}

Incoming: Look up inhibition zone (IZ): C[Si]1(C)OB(O)c2c(F)c(F)c(F)c(F)c21
Outgoing: 13

Incoming: Given the molecule C[Si]1(C)OB(O)c2ccc(B(O)O)cc21 , what is its reported inhibition zone (IZ)?
Outgoing: 18

Incoming: Recorded inhibition zone (IZ) for C[Si]1(C)OB(O)c2cc3c(c(F)c21)COB3O , please?
Outgoing: 12

====

Target: Class A carbapenemase KPC-2 (Escherichia coli)
Test: Inhibition of beta lactamase KPC-2 in Escherichia coli 76 assessed as potentiation of ceftazidime-induced antibacterial activity by measuring ceftazidime MIC at 16 mg/L incubated for 18 hrs by broth dilution method (reference value: >[…] mg/L)
Each record here notes measured MIC.

Incoming: // returns reported MIC for input C[Si]1(C)OB(O)c2ccc(F)c(F)c21
Outgoing: > 64 µg/mL

Incoming: What value of MIC has been recorded for this entry: C[Si]1(C)OB(O)c2c(F)c3c(c(F)c21)B(O)OC3
Outgoing: > 64 µg/mL

====

System: Pichia kudriavzevii
Experiment: Antifungal activity against Candida krusei ATCC 6258 assessed as decrease in fungal cell growth at 0.78 to 12.5 mg/L incubated for 24 hrs by CLSI broth dilution method
Assay type: functional
Conditions: ATCC 6258, 24 h
Property measured: MIC (µg/mL)
The reply should be a number in µg/mL, with the unit left off.

Before answering, review these 3 worked examples.
{"Smiles text": "C[Si]1(C)OB(O)c2cccc(F)c21", "MIC (µg/mL)": 50}
{"Smiles text": "C[Si]1(C)OB(O)c2cc(F)c(F)cc21", "MIC (µg/mL)": 50}
{"Smiles text": "C[Si]1(C)OB(O)c2ccc(F)cc21", "MIC (µg/mL)": 12.5}

Incoming: Look up MIC: C[Si]1(C)OB(O)c2cc(F)c(C=O)c(F)c21
Outgoing: 25

Incoming: Quick check: MIC of C[Si]1(C)OB(O)c2cc(F)c(CO)c(F)c21 ?
Outgoing: 400

====

Test system: Candida albicans
Assay: Antifungal activity against Candida albicans ATCC 90028 assessed as diameter of zone inhibition incubated for 24 hrs by CLSI disc diffusion method
Format: functional
Active and inactive are the calls of the source. No cut-off for these calls is given here.
Property measured: diameter of the inhibition zone (DIZ)

{"Smiles text": "C[Si]1(C)OB(O)c2cccc(F)c21", "Target system": "Candida albicans", "diameter of the inhibition zone (DIZ)": "24 mm"}
{"Smiles text": "C[Si]1(C)OB(O)c2c(F)c3c(c(F)c21)B(O)OC3", "Target system": "Candida albicans", "diameter of the inhibition zone (DIZ)": "inactive"}
{"Smiles text": "C[Si]1(C)OB(O)c2ccc(C=O)c(F)c21", "Target system": "Candida albicans", "diameter of the inhibition zone (DIZ)": "inactive"}
{"Smiles text": "C[Si]1(C)OB(O)c2ccc(F)cc21", "Target system": "Candida albicans", "diameter of the inhibition zone (DIZ)": "13 mm"}
{"Smiles text": "C[Si]1(C)OB(O)c2ccc(Cl)c(Cl)c21", "Target system": "Candida albicans", "diameter of the inhibition zone (DIZ)": "33 mm"}

Incoming: # get_value(readout='diameter of the inhibition zone (DIZ)', item= C[Si]1(C)OB(O)c2cccc(Cl)c21 )
Outgoing: 17 mm

Incoming: Please look up its diameter of the inhibition zone (DIZ): C[Si]1(C)OB(O)c2cc3c(c(F)c21)COB3O
Outgoing: inactive

Incoming: Name the reported diameter of the inhibition zone (DIZ) value associated with the compound C[Si]1(C)OB(O)c2cc(F)c(F)cc21
Outgoing: 16 mm

Incoming: Item C[Si]1(C)OB(O)c2ccc(B(O)O)cc21 has what recorded diameter of the inhibition zone (DIZ)?
Outgoing: inactive

Incoming: Look at this compound and give its reported diameter of the inhibition zone (DIZ). C[Si]1(C)OB(O)c2cc3c(c(F)c21)[Si](C)(C)OB3O
Outgoing: 11 mm

Incoming: Name the recorded diameter of the inhibition zone (DIZ) for C[Si]1(C)OB(O)c2cc(C=O)cc(F)c21 .
Outgoing: inactive

====

System: Staphylococcus epidermidis
Experiment: Antibacterial activity against Staphylococcus epidermidis ATCC 12228 assessed as diameter of zone inhibition measured after 18 hrs by CLSI disc diffusion method
Format: functional
Property measured: diameter of the inhibition zone (DIZ) (mm)
Hi! Could you send only the number? It should be in mm, unit omitted.

{"Smiles text": "C[Si]1(C)OB(O)c2cc3c(c(F)c21)[Si](C)(C)OB3O", "diameter of the inhibition zone (DIZ), mm": 34}

Incoming: For the compound shown here, C[Si]1(C)OB(O)c2c(C=O)cc(F)c(F)c21 , give the reported diameter of the inhibition zone (DIZ).
Outgoing: 28

Incoming: // query diameter of the inhibition zone (DIZ) value for entry C[Si]1(C)OB(O)c2cc(F)c(CO)c(F)c21
Outgoing: 19

Incoming: # get_value(readout='diameter of the inhibition zone (DIZ)', item= C[Si]1(C)OB(O)c2cccc(B(O)O)c21 )
Outgoing: 22

Incoming: Could you tell me which diameter of the inhibition zone (DIZ) is on file for C[Si]1(C)OB(O)c2ccccc21 ?
Outgoing: 28

Incoming: Entry under review: C[Si]1(C)OB(O)c2ccc(Cl)c(Cl)c21 . Reported diameter of the inhibition zone (DIZ)?
Outgoing: 22

====

This section presents compounds with their documented MIC values.
Tested on: Klebsiella pneumoniae
Test: Inhibition of beta lactamase KPC-3 in Klebsiella pneumoniae 83 assessed as potentiation of meropenem-induced antibacterial activity by measuring meropenem MIC at 16 mg/L incubated for 18 hrs by broth dilution method (reference value: […] mg/L)
Dear colleague, please return just the value in µg/mL, with no unit written.

Worked examples follow.
{"Smiles text": "C[Si]1(C)OB(O)c2cc3c(c(F)c21)COB3O", "MIC [µg/mL]": 32}
{"Smiles text": "C[Si]1(C)OB(O)c2c(F)c3c(c(F)c21)B(O)OC3", "MIC [µg/mL]": 32}
{"Smiles text": "C[Si]1(C)OB(O)c2c(F)c(F)c(F)c(F)c21", "MIC [µg/mL]": 32}
{"Smiles text": "C[Si]1(C)OB(O)c2ccc(B(O)O)cc21", "MIC [µg/mL]": 8}
{"Smiles text": "OB(O)c1ccccc1", "MIC [µg/mL]": 8}

Incoming: Return reported MIC; argument: C[Si]1(C)OB(O)c2ccc(F)c(F)c21
Outgoing: 32

====

MIC values, listed per item
System: Serratia marcescens
Test: Antibacterial activity against Serratia marcescens ATCC 13880 measured after 18 hrs by CLSI broth dilution method
Assay type: functional
Settings: ATCC 13880, 18 h

Worked examples follow.
{"Smiles text": "C[Si]1(C)OB(O)c2ccc(Cl)cc21", "MIC": "> 400 µg/mL"}
{"Smiles text": "C[Si]1(C)OB(O)c2cccc(F)c21", "MIC": "> 400 µg/mL"}
{"Smiles text": "C[Si]1(C)OB(O)c2ccccc21", "MIC": "> 200 µg/mL"}
{"Smiles text": "C[Si]1(C)OB(O)c2cc(F)c(CO)c(F)c21", "MIC": "> 400 µg/mL"}

Attention now turns to another entry.
Incoming: What does the record list as MIC for C[Si]1(C)OB(O)c2cc(B(O)O)cc(F)c21 ?
Outgoing: > 400 µg/mL

====

Test system: Klebsiella pneumoniae
Assay: Inhibition of beta lactamase KPC-3 in Klebsiella pneumoniae 81 assessed as potentiation of meropenem-induced antibacterial activity by measuring meropenem MIC at 16 mg/L incubated for 18 hrs by broth dilution method (reference value: […] mg/L)
Quick reference: MIC of the listed items.
Give the quantity in µg/mL, number only.

Incoming: May I ask what MIC has been recorded for C[Si]1(C)OB(O)c2ccc(F)c(F)c21 ?
Outgoing: 8

Incoming: Which value of MIC has been reported for C[Si]1(C)OB(O)c2ccc(B(O)O)cc21 in the records?
Outgoing: 4

Incoming: MIC for C[Si]1(C)OB(O)c2c(F)c3c(c(F)c21)B(O)OC3 ?
Outgoing: 16

Incoming: // query MIC value for entry OB(O)c1ccccc1
Outgoing: 2

Incoming: Which MIC is reported for this compound? C[Si]1(C)OB(O)c2cc3c(c(F)c21)COB3O
Outgoing: 8

Incoming: MIC for C[Si]1(C)OB(O)c2c(F)c(F)c(F)c(F)c21 ?
Outgoing: 16
